- Test target: Muscarinic acetylcholine receptor M2 (Homo sapiens)
- Sequence (P08172 whole entry): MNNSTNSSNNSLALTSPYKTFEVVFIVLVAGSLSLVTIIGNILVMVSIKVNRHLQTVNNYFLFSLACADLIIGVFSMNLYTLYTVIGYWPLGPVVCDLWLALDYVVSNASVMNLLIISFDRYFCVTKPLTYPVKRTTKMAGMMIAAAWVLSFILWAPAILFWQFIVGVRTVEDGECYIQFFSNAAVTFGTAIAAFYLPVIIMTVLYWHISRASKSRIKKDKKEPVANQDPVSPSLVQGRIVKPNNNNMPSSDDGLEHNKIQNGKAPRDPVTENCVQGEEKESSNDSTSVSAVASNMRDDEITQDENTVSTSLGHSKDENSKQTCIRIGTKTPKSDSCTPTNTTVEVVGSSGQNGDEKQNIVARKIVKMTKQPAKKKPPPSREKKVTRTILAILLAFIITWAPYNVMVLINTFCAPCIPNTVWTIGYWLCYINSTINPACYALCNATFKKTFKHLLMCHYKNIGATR
- Assay method text: Antagonist activity at human muscarinic M2 receptor expressed in CHO cells assessed as inhibition of acetylcholine-induced calcium mobilization by fluorescence assay
pIC50: −log10 of the molar value.
Assay readout: pIC50

-- ask For the record "O=C(CCNS(=O)(=O)c1cccc2ncccc12)N1CCN(c2ccncc2)CC1" , what value of pIC50 is listed for Muscarinic acetylcholine receptor M2 (Homo sapiens)?
-- reply < 4.52

====

- Test target: Muscarinic acetylcholine receptor M1 (Homo sapiens)
- Sequence (P11229 whole entry): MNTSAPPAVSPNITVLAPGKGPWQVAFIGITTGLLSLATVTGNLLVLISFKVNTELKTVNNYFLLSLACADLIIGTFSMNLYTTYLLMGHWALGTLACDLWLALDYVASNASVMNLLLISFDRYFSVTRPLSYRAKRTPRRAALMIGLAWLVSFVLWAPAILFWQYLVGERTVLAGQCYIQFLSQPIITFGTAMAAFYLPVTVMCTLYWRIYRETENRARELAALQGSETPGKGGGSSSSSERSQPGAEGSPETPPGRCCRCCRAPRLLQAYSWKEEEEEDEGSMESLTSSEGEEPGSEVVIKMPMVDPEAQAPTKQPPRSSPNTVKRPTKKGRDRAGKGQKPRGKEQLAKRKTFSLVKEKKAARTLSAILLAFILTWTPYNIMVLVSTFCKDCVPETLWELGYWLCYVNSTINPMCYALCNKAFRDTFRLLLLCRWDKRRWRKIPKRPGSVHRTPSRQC
- Assay method text: Antagonist activity at human muscarinic M1 receptor expressed in CHO cells assessed as inhibition of acetylcholine-induced calcium mobilization by fluorescence assay
pIC50: −log10 of the molar value.
Assay readout: pIC50

Worked cases, answers included:
{"columns": ["Input smiles", "Reading"],
 "data": [
  ["O=C(CCNS(=O)(=O)c1cccc2nsnc12)N1CCN(c2cc(Cl)ccn2)CC1", 5.35],
  ["O=C(CCNS(=O)(=O)c1cccc2nsnc12)N1CCN(c2nccs2)CC1", "< 5.00"],
  ["O=C(CCNS(=O)(=O)c1ccc(F)c2nonc12)N1CCN(c2ccc(Br)cn2)CC1", 5.32],
  ["O=C(CCNS(=O)(=O)c1cccc2nsnc12)N1CCN(c2cccc(F)n2)CC1", "< 5.00"]
]}

-- ask Recorded pIC50 for "CC(=O)Nc1nc(C)c(S(=O)(=O)NCCC(=O)N2CCN(c3ccc(Br)cn3)CC2)s1" , please?
-- reply < 5.00

-- ask Recorded pIC50 for "Cc1ccnc(N2CCN(C(=O)CCNS(=O)(=O)c3cccc4nsnc34)CC2)c1" , please?
-- reply < 5.00

-- ask Recorded pIC50 for "O=C(CCNS(=O)(=O)c1cccc2nonc12)N1CCN(c2ccncc2)CC1" , please?
-- reply 5.59

-- ask Recorded pIC50 for "O=C(CCNS(=O)(=O)c1cccc2nsnc12)N1CCN(c2nc3ccccc3s2)CC1" , please?
-- reply < 5.00

-- ask Recorded pIC50 for "Cc1cnccc1N1CCN(C(=O)CCNS(=O)(=O)c2cccc3nsnc23)CC1" , please?
-- reply 5.70

-- ask Recorded pIC50 for "O=C(CCNS(=O)(=O)c1cccc2nsnc12)N1CCN(c2ccnc(Cl)c2)CC1" , please?
-- reply < 5.00

-- ask Recorded pIC50 for "O=C(CCNS(=O)(=O)c1cccc2cccnc12)N1CCN(c2ccc(Br)cn2)CC1" , please?
-- reply < 5.00

-- ask Recorded pIC50 for "Cc1ccc2nonc2c1S(=O)(=O)NCCC(=O)N1CCN(c2ccncc2)CC1" , please?
-- reply < 5.00

-- ask Recorded pIC50 for "CN(CCC(=O)N1CCN(c2ccncc2)CC1)S(=O)(=O)c1cccc2nsnc12" , please?
-- reply < 5.00

-- ask Recorded pIC50 for "O=C(CCNS(=O)(=O)c1cccc2nsnc12)N1CCN(c2ccnc(F)c2)CC1" , please?
-- reply < 5.00

-- ask Recorded pIC50 for "Cc1ccc2nsnc2c1S(=O)(=O)NCCC(=O)N1CCN(c2ccncc2)CC1" , please?
-- reply < 5.00

-- ask Recorded pIC50 for "O=C(CCNS(=O)(=O)c1cccc(-n2cnnn2)c1)N1CCN(c2ccncc2)CC1" , please?
-- reply < 5.00

-- ask Recorded pIC50 for "O=C(CCNS(=O)(=O)c1cccnc1)N1CCN(c2ccncc2)CC1" , please?
-- reply < 5.00

-- ask Recorded pIC50 for "Cc1ccc2nonc2c1S(=O)(=O)NCCC(=O)N1CCN(c2ccc(Br)cn2)CC1" , please?
-- reply < 5.00

-- ask Recorded pIC50 for "O=C(CCNS(=O)(=O)c1cccc2nsnc12)N1CCN(c2ncccn2)CC1" , please?
-- reply < 5.00

-- ask Recorded pIC50 for "O=C(CCNS(=O)(=O)c1cccc2nsnc12)N1CCN(c2ccncc2)CC1" , please?
-- reply 6.16

====

- Test target: Muscarinic acetylcholine receptor M1 (Homo sapiens)
- Assay method text: Antagonist activity at human muscarinic M1 receptor expressed in CHO cells assessed as inhibition of acetylcholine-induced calcium mobilization by fluorescence assay
pIC50 for assorted compounds
Units for pIC50: none; it is -log10 of a concentration expressed in mol/L.

-- ask Recorded pIC50 for "O=C(CCNS(=O)(=O)c1cccc2ncccc12)N1CCN(c2ccncc2)CC1" , please?
-- reply 6.40

-- ask Recorded pIC50 for "O=C(CCNS(=O)(=O)c1cccc2ncccc12)N1CCN(c2ccc(Br)cn2)CC1" , please?
-- reply 5.68

-- ask Recorded pIC50 for "O=C(CCNS(=O)(=O)c1cccc2nonc12)N1CCN(c2ccc(Br)cn2)CC1" , please?
-- reply 5.96

-- ask Recorded pIC50 for "O=C(CCNS(=O)(=O)c1cccc2nsnc12)N1CCN(c2ccc(Br)cn2)CC1" , please?
-- reply 6.49

====

- Test target: Muscarinic acetylcholine receptor M3 (Homo sapiens, UniProt P20309)
- Sequence (P20309 whole entry): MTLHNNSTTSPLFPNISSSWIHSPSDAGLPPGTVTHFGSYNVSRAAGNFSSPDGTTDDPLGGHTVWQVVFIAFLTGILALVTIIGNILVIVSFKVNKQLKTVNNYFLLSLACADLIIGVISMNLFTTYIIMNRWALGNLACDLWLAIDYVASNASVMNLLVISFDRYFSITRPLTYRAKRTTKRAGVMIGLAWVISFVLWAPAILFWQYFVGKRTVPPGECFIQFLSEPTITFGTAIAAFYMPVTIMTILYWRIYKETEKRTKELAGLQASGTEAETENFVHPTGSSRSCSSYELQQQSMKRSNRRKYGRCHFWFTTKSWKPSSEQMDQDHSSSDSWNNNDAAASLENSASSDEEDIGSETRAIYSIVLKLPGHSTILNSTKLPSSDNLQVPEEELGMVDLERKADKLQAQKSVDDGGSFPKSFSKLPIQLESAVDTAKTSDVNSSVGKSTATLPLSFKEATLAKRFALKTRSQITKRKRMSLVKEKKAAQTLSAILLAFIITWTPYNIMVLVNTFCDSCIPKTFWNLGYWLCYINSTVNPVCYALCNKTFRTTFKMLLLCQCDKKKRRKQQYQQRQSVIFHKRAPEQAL
- Assay method text: Antagonist activity at human muscarinic M3 receptor expressed in CHO cells assessed as inhibition of acetylcholine-induced calcium mobilization by fluorescence assay
pIC50: −log10 of the molar value.
Assay readout: pIC50

-- ask Recorded pIC50 for "O=C(CCNS(=O)(=O)c1cccc2ncccc12)N1CCN(c2ccncc2)CC1" , please?
-- reply < 4.52
